Reference source: paper PMC11855144

Target: human DNA ligase I (Homo sapiens, UniProt P18858)
Sequence (P18858 whole entry): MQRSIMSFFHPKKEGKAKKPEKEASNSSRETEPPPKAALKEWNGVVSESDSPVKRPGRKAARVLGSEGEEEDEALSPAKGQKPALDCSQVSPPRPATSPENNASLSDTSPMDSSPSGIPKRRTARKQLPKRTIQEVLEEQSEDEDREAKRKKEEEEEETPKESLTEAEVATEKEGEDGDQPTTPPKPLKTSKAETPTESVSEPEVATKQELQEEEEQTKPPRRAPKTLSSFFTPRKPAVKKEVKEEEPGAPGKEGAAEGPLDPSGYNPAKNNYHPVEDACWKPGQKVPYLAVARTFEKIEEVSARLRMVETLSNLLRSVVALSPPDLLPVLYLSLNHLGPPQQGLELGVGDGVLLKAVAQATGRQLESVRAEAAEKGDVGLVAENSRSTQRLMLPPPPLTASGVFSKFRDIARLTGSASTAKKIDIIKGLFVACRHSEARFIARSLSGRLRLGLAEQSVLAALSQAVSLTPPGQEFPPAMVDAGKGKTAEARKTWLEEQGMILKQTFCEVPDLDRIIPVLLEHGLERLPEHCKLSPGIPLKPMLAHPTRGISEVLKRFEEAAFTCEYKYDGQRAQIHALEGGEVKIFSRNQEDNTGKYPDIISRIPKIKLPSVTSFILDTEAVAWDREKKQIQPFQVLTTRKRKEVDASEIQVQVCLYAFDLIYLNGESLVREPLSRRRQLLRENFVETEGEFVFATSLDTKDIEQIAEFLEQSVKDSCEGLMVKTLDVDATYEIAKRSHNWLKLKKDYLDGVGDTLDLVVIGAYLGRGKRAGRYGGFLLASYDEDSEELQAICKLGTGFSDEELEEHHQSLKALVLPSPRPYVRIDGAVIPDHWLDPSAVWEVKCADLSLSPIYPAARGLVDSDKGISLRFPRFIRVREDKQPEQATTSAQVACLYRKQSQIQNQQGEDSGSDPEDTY
Experiment: nick-sealing DNA ligase assay (gel electrophoresis), DNA ligase I
Format: biochemical
Conditions: ATP 10 μM, DNA substrate 50 nM, human DNA ligase I 0.5 nM; read-out: IC50 against human DNA ligase I (converted)
Protocol: In this study, a standard nick-sealing assay was used to identify potential human DNA ligase inhibitors from representative flavonoids. […] Selected flavonoids with the resorcinol moiety in their A rings were tested as potential DNA ligase inhibitors. Epigallocatechin gallate (EGCG) is also a flavonoid found in plants, herbs, fruits, and green tea. Rutin is a flavonoid glycoside combining the flavonol quercetin and the disaccharide rutinose found in a wide variety of plants, including citrus. […]
List of IC50 values.

| Molecule | IC50 [µM] |
| --- | --- |
| O=c1c(O)c(-c2ccc(O)c(O)c2)oc2cc(O)cc(O)c12 | 1.65 |
| C[C@@H]1O[C@@H](OC[C@H]2O[C@@H](Oc3c(-c4ccc(O)c(O)c4)oc4cc(O)cc(O)c4c3=O)[C@H](O)[C@@H](O)[C@@H]2O)[C@H](O)[C@H](O)[C@H]1O | 4.91 |
| Oc1cc(O)c2c(c1)O[C@H](c1cc(O)c(O)c(O)c1)[C@H](O)C2 [epigallocatechin] | 1.63 |
